- run_description: Octanol/water partition coefficient, logD of the compound at pH 7.4 by shake flask method
- Type: physicochemical
parameter: logD

[P] COc1cc(F)c(O[C@H]2CC[C@@](CC#N)(C(=O)O)CC2)cc1C(=O)N[C@@H]1[C@H]2CC[C@H](C2)[C@@H]1C(=O)NCC1(C)CCC1
[Q] COc1cc(C#N)c(O[C@H]2CC[C@@](C)(C(=O)O)CC2)cc1C(=O)N[C@@H]1[C@H]2CC[C@H](C2)[C@@H]1C(=O)NC12CC(F)(C1)C2
Prompt: Which of these two has the smaller recorded logD: P or Q ? // output: label of the selected item
Response: P
(P: 1.4, Q: 2.2)

[I] COc1c(C)cc(O[C@H]2CC[C@@](C)(C(=O)O)CC2)cc1C(=O)N[C@@H]1[C@H]2CC[C@H](C2)[C@@H]1C(=O)NCC1(C)CCC1
[II] COc1cc(F)c(C[C@H]2CC[C@@](C)(C(=O)O)CC2)cc1C(=O)N[C@@H]1[C@H]2CC[C@H](C2)[C@@H]1C(=O)NCC1(C)CCC1
Prompt: Returns: the argument ( I or II ) having the larger logD. Provide the label of your selected option as the answer.
Response: II
(II: 4.3, I: 2.9)
